test details: Multiple ascending dose (MAD) study: multiple-dose pharmacokinetics
Assay type: in vivo, human
stated conditions: human, plasma, oral, 80 mg, 80 mg BID, Day 7, 0 hr post-dose (144 h); read-out: Pre-dose (trough) plasma concentration, Mean
metric: concentration at 144 h (ng/mL)
One number for each entry, in ng/mL.

Please fill in: concentration at 144 h reported for `CC(=O)c1nn(CC(=O)N2[C@H](C(=O)Nc3nc(Br)ccc3C)C[C@@]3(C)C[C@@H]23)c2ccc(-c3cnc(C)nc3)cc12` = 69.1

* * *

test details: MAD study, two additional single-dose cohorts: pharmacokinetics
Type: in vivo, human
stated conditions: human, plasma, oral; 120 mg single dose, fed moderate fat meal; read-out: AUC0-inf, Mean
metric: AUC(0-inf) (µg·h/mL)
Give bare numbers, in µg·h/mL.

Please fill in: AUC(0-inf) reported for CC(=O)c1nn(CC(=O)N2[C@H](C(=O)Nc3nc(Br)ccc3C)C[C@@]3(C)C[C@@H]23)c2ccc(-c3cnc(C)nc3)cc12 [Compound 1] = 1.49
